molecular target: T1, Human VEGF-A 165 (human, UniProt P15692 207-395); test: Biacore SPR (Example 1.1)
T1 construct: also called hVEGF165; huVEGF-A165
T1 sequence (P15692 other isoform, or with tags, fused parts or gaps limits assumed): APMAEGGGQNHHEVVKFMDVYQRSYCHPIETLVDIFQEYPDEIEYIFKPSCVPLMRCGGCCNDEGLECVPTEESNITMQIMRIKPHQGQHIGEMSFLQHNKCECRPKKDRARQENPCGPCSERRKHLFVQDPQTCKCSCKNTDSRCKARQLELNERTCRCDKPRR
ASSAY ENDPOINT: kon (M⁻¹ s⁻¹)
Give bare numbers, in M⁻¹ s⁻¹.

Record excerpt, results attached:
1) BED-4G10-C8 (antibody, IgG2b, V domains shown) VH: QVQLQQSGTELVKPGSSVKISCKASGYTFTSNYMHWIRQQPGNGLEWIGWIYPGDGDTNYNHNFNGKATLTADKSSSTAYMQLSSLTSEDFAVYFCASSTRAIPGWFTYWGQGTLVTVSS VL: DTVLTQSPALAVSPGERVSISCWASESVSTLMHWYQQKLGQQPKLLIYGASNLESGVPARFRGSGSGTDFTLTIDPVEADDTATYFCQQSWSDPYTFGAGTKLELK | 1.8e+07
2) BEW-6C2-C8 (antibody, IgG2b, V domains shown) VH: EVQLVESGGGLVQPGSSLKLSCAASGFTFSYYGMHWIRQAPKKGLEWMALIYYDSSKMYYADSVKGRFTISRDNSKNTLYLEMNSLRSEDTAMYYCAAGGTAPVYWGQGVMVTVSS VL: NIQLTQSPSLLSASVGDRVTLSCKGSQNIANYLAWYQQKLGEAPKLLIYNTDSLQTGIPSRFSGSGSGTDYTLTISSLQPEDVATYFCYQSNNGYTFGAGTKLELR | 6.9e+06
3) BEW-8E6-E4 (antibody, IgG2a, V domains shown) VH: QIQLVQSGPELKKPGESVKISCKASGYTFTDYAMHWVKQAPGKVLKWMGWINTFTGKPTYIDDFKGRFVFSLEASASTANLQISDLKNEDTATYFCARGNYYSGYWYFDFWGPGTMVTMSS VL: DIQMTQSPASLSASLGETISIECRASEDISSNLAWYQQKSGKSPQLLIFAANRLQDGVPSRFSGSGSGTQFSLKISGMQPEDEGDYFCLQGSKFYTFGAGTKLELK | 6.9e+06
4) BEW-9E7-B4 (antibody, IgG2b, V domains shown) VH: QIQLVQSGPELKKPGESVKISCKASGYTFTNYGMYWVKQAPGQGLQYMGWIDTETGKPTYADDFKGRFVFFLETSASTAYLQINNLRNEDMATYFCARWGYTSDYYYGWFPDWGQGTLVTVST VL: DTVLTQSPALAVSPGERVSISCRASEGVNSYMHWYQQNPGQQPKLLIYKASNLASGVPARFSGSGSGTDFTLNIHPVEADDTATYFCQQNWNVPLTFGSGTKLEIK | 5.9e+06
5) BEW-9E10-E7 (antibody, IgG2a, V domains shown) VH: QIQLLQSGPELKKPGESVKISCKASGYTFTNYGMYWVKQAPGQGLQYMGWIDTETGRPTYADDFKGRFVFFLETSASTAYLQINNLKNEDMATYFCARWSGDTTGIRGPWFAYWGQGTLVTVSS VL: DIRMTQSPASLSASLGETVNIECLASEDIYSDLAWYQQKPGRSPQLLIYNANGLQNGVPSRFGGSGSGTQYSLKINSLQSEDVATYFCQQYNYFPGTFGAGTKLELK | 1.3e+07

Give measured kon for every item shown.
1. BEW-9A8-E2 (antibody, IgG2a, V domains shown) VH: QIQLVQSGPELKKPGESVKISCKASGYTFTNYGMYWVKQAPGQGLQYMGWINTETGKPIYADDFKGRFVFFLETSASTAYLQINNLKNEDMATFFCARVDYDGSFWFAYWGQGTLVTVSS VL: DTVLTQSPALAVSPGERVSISCRASESVSTVIHWYQQKPGQQPKLLIHGASNLESGVPARFSGSGSGTDFTLTIDPVEADDTATYFCQQHWNDPPTFGAGTKLEMK
2. BEW-3A1-D10-G9 (antibody, IgG2b, V domains shown) VH: QVQLEQSGAELVKPGTSVKLSCMASGYTSSSNHMNWMKQTTGQGLEWIGIINPGSGGTRYNVKFEGKATLTVDKSSSTAFMQLNSLTPEDSAVYYCARAGFPGPFSYYAMGAWGQGTSVTVSS VL: DIQMTQSPPVLSASVGDRVTLSCKASQNIHNNLDWYQQKHGEAPKLLIFYTNNLQTGIPSRFSGSGSGTDYTLTISSLQPEDVATYYCYQYNSGYTFGAGTKLELK
3. BEW-5C3-E7 (antibody, IgG2b, V domains shown) VH: QIQLVQSGPELKKPGESVKISCKASGYTFTNYGVYWVKQAPGQGLQYMGWINTETGKPTYADDFKGRFVFFLETSTNTAYLQINNLKNEDMATFFCARARQLDWFVYWGQGTLVTVSS VL: DTVLTQSPALTVSPGERVSISCRARESLTTSLCWFQQKPGQQPKLLIYGASKLESGVPARFSGSGSGTDFTLTIDPVEADDTATYFCQQSWYDPPTFGGGTKLELK
4. BEW-10H2-B9 (antibody, IgG2b, V domains shown) VH: QIQLVQSGPELKKPGESVKISCKASGYSFTNFGLYWVKQAPGQGLQYMGWIDTETGKPTYADDFRGRFVFFLETSASTAYLQINNLKNEDMATYFCARVYGYPSWYFDFWGPGTMVTVSS VL: DIQMTQSPASLSTSLEEIVTITCQASQDIDNYLSWYQQKPGKSPQLLIHSATSLADGVPSRFSGSRSGTQFSLKIHRLQVEDTGIYYCLQHFFPPWTFGGGTKLELK
5. BEW-1E3-D6 (antibody, IgG2b, V domains shown) VH: QIQLVQSGPELKKPGESVKISCKASGYPFTNSGMYWVKQAPGQGLQYMGWINTEAGKPTYADDFKGRFVFFLETSASTAYLQINNLKNEDMATYFCARWGYISDNSYGWFDYWGQGTLVTVSS VL: DTVLTQSPALAVSPGERVSISCRASEGVYSYMHWYQQNPGQQPKLLIYKASNLASGVPARFSGSGSGTDFTLTIDPVEADDTATYFCHQNWNDPLTFGSGTKLEIK

1. 7.4e+06
2. 1e+07
3. 1.2e+07
4. 2.4e+07
5. 1.4e+07
